Give IC50 for every item shown.
- targetSystem: Recombinant human BRD4 containing dual bromodomains (BRD4-BD12 (1-477)) (Homo sapiens)
- Construct: Recombinant human BRD4 containing dual bromodomains (BRD4-BD12 (1-477))
- protocolText: BRD4 Alphascreen binding assay

Request: // lookup IC50 for Cc1noc(C)c1-c1cnc2c(Cc3ccccc3)cn(-c3ccnc(C(=O)O)c3)c2c1 [P-0053]
Response: 1 to 8 µM

Request: // IC50 lookup, key: Cc1noc(C)c1-c1cnc2c(c1)c(-c1c(Cl)cc(C(=O)O)cc1OCC(F)F)cn2-c1cnn(C(F)F)c1C [P-0352]
Response: 1 to 8 µM

Request: Which measured IC50 value corresponds to CCOc1cc(C(=O)O)c(F)cc1-c1cn(C2CCN(C(=O)C(C)(C)C)CC2)c2ncc(-c3c(C)noc3C)cc12 [P-0445] ?
Response: 8 to 1000 µM

Request: What value of IC50 has been recorded for this entry: Cc1noc(C)c1-c1cnc2c(c1)c(-c1c(Cl)cc(C(=O)O)cc1OC(F)(F)F)cn2C(C1CC1)C1CC1 [P-0198]
Response: 8 to 1000 µM

Request: # input compound: COc1c(-n2cc(CC3CCC3)c3ncc(-c4c(C)noc4C)cc32)ccc(C(=O)O)c1F [P-0087] ; wanted: its IC50
Response: 1 to 8 µM

Request: Can you share its IC50? I mean this compound: CCOc1cc(C(=O)O)cc(OCC)c1-n1cc(-c2ccc(F)c(Cl)c2)c2ncc(-c3c(C)noc3C)cc21 [P-0209]
Response: 1 to 8 µM

Request: # input compound: Cc1noc(C)c1-c1cnc2c(c1)c(-c1cccc(C(=O)NS(C)(=O)=O)c1)cn2Cc1ccccc1 [P-0092] ; wanted: its IC50
Response: 1 to 8 µM

Request: Query: IC50; subject: COc1cc(C(=O)O)cc(OC)c1-c1cn([C@@H](C)c2ccccn2)c2cc(-c3c(C)noc3C)cnc12 [P-0146]
Response: 8 to 1000 µM

Request: Fill in the blank: the reported IC50 of Cc1noc(C)c1-c1cnc2c(c1)c(-c1ccc(C(=O)O)cc1)cn2C(C)c1ccccn1 (stereo not shown) [P-0080] is ____.
Response: 1 to 8 µM

Request: Item Cc1noc(C)c1-c1cnc2c(-c3cc(C(=O)O)ccc3C#N)cn(C(C)(c3ccccn3)c3ccccn3)c2c1 [P-0166] has what recorded IC50?
Response: 0.0001 to 1 µM

Request: Item under review: CCOc1cc(C(=O)O)nc(OCC)c1-c1cn(-c2cn(CC)nc2C)c2ncc(-c3c(C)noc3C)cc12 [P-0430] . Reported IC50?
Response: 1 to 8 µM

Request: Fill blank: measured IC50 of the compound CC[C@@H](c1ccccn1)n1cc(-c2cc(C(=O)O)ccc2Cl)c2ncc(-c3c(C)noc3C)cc21 [P-0148] is ____.
Response: 1 to 8 µM

Request: Any idea what IC50 was measured for COc1ccc(C(=O)O)cc1-c1cn(C(C)c2ccccc2)c2cc(-c3c(C)noc3C)cnc12 (stereo not shown) [P-0140] ?
Response: 8 to 1000 µM

Request: Look up IC50: CCOc1cc(C(=O)O)cc(Cl)c1-c1cn(C(C2CC2)C2CC2)c2ncc(-c3c(C)noc3C)cc12 [P-0370]
Response: 1 to 8 µM

Request: I am curious: what IC50 value has been reported for Cc1noc(C)c1-c1cc2c(cn1)c(CC1CCC1)cn2-c1c(Cl)cc(C(=O)O)cc1Cl [P-0149] ?
Response: 8 to 1000 µM

Request: What value of IC50 has been reported for the following compound? Cc1noc(C)c1-c1cnc2c(CC3CCC3)cn(-c3ccc(C(=O)O)cc3OC(F)F)c2c1 [P-0064]
Response: 1 to 8 µM

Request: If you can, please state the reported IC50 value of Cc1noc(C)c1-c1cnc2c(C(=O)c3cccc(Cl)c3)cn(-c3ccnc(C(=O)O)c3)c2c1 [P-0088] .
Response: 1 to 8 µM

Request: Can you share its IC50? I mean this compound: CCOc1cc(C(=O)O)cc(OCC)c1-n1cc(-c2ccc(F)cc2F)c2ncc(-c3c(C)noc3C)cc21 [P-0186]
Response: 8 to 1000 µM

Request: Which IC50 is reported for this compound? CCc1noc(C)c1-c1cnc2c(c1)c(-c1ccc(C(=O)O)cc1OC(F)(F)F)cn2C1CCOCC1 [P-0400]
Response: 1 to 8 µM

Request: For Cc1noc(C)c1-c1cnc2c(c1)c(-c1c(OC(C)C)cc(C(=O)O)cc1OC(C)C)cn2[C@@H](C)c1ccccn1 [P-0118] , what is its reported IC50?
Response: 8 to 1000 µM

Request: // query IC50 value for entry Cc1noc(C)c1-c1cnc2c(c1)c(-c1ccc(C(=O)O)cc1)cn2C(c1ccccn1)C1CCCCC1 (stereo not shown) [P-0004]
Response: 8 to 1000 µM

Request: Give its IC50 value. Item: Cc1noc(C)c1-c1cnc2c(c1)c(-c1ccc(C(=O)O)cc1OC(C)C)cn2C1CCOCC1 [P-0357]
Response: 8 to 1000 µM

Request: Entry Cc1noc(C)c1-c1cnc2c(c1)c(-c1c(Cl)cc(C(=O)O)cc1OC(F)(F)F)cn2-c1cnc(C2CC2)nc1 [P-0386] : reported IC50 = ?
Response: 1 to 8 µM

Request: What IC50 value was documented for this compound, Cc1noc(C)c1-c1cnc2c(c1)c(-c1ccc(C(=O)O)cc1OC(F)(F)F)cn2-c1ccccc1C1CC1 [P-0308] ?
Response: 1 to 8 µM

Request: Consider the compound COC(=O)c1cc(-n2cc(Cc3ccccc3)c3ncc(-c4c(C)noc4C)cc32)ccn1 [P-0052] and give its measured IC50.
Response: 1 to 8 µM

Request: Returns the measured IC50 for the input compound. Input: Cc1noc(C)c1-c1cnc2c(-c3ccc(F)cc3F)cn(-c3c(OC(C)C)cc(C(=O)O)cc3OC(C)C)c2c1 [P-0269]
Response: 1 to 8 µM

Request: Given the compound CCOc1nc(C(=O)O)cc(C)c1-c1cn(C(C2CC2)C2CC2)c2ncc(-c3c(C)noc3C)cc12 [P-0417] , what is its reported IC50?
Response: 8 to 1000 µM

Request: // returns reported IC50 for input Cc1noc(C)c1-c1cnc2c(c1)c(-c1ccc(C(=O)O)nc1)cn2C(c1ccccn1)C1CCCC1 (stereo not shown) [P-0026]
Response: 1 to 8 µM

Request: Requested read-out: IC50. Entry: Cc1ccccc1-n1cc(-c2ccc(C(=O)O)cc2OC(F)(F)F)c2cc(-c3c(C)noc3C)cnc21 [P-0231]
Response: 8 to 1000 µM

Request: Please give the measured IC50 for this compound: Cc1noc(C)c1-c1cnc2c(c1)c(-c1ccc(C(=O)O)cc1OC(C)C)cn2-c1ccccc1 [P-0275]
Response: 1 to 8 µM

Request: Give the measured IC50 of Cc1noc(C)c1-c1cnc2c(c1)c(-c1ccnc(C(=O)O)c1)cn2S(=O)(=O)c1ccccc1 [P-0055] .
Response: 0.0001 to 1 µM
